protocol.details: Molar enthalpy of transition or fusion
test.parameters: Crystal 1; DSC
recorded.endpoint: Molar enthalpy of transition or fusion (kcal/mol)

compound="COc1cc(N)cc(C(=O)O)c1 [3-amino-5-methoxybenzoic acid]" recorded_endpoint="Molar enthalpy of transition or fusion" result_number=5.35
compound="COc1ccc(C(=O)O)cc1N [3-amino-4-methoxybenzoic acid]" recorded_endpoint="Molar enthalpy of transition or fusion" result_number=6.06
compound="COc1ccc(N)c(C(=O)O)c1 [2-amino-5-methoxybenzoic acid]" recorded_endpoint="Molar enthalpy of transition or fusion" result_number=5.47
compound="COc1cc(C(=O)O)ccc1N [4-amino-3-methoxybenzoic acid]" recorded_endpoint="Molar enthalpy of transition or fusion" result_number=6.04
compound="COc1cccc(C(=O)O)c1N [2-amino-3-methoxybenzoic acid]" recorded_endpoint="Molar enthalpy of transition or fusion" result_number=5.79

* * *

test.parameters: Crystal; DTA
recorded.endpoint: Normal melting temperature (°C)

compound="COc1ccc(C(=O)O)cc1N [3-amino-4-methoxybenzoic acid]" measurement_units=°C result_number=204.72
compound="COc1cc(N)cc(C(=O)O)c1 [3-amino-5-methoxybenzoic acid]" measurement_units=°C result_number=183.79
compound="COc1ccc(N)c(C(=O)O)c1 [2-amino-5-methoxybenzoic acid]" measurement_units=°C result_number=151.81
compound="COc1cccc(C(=O)O)c1N [2-amino-3-methoxybenzoic acid]" measurement_units=°C result_number=169.86
compound="COc1cc(C(=O)O)ccc1N [4-amino-3-methoxybenzoic acid]" measurement_units=°C result_number=189.20
